# experimental-target: human OT-R (Homo sapiens, UniProt P30559)
# Construct: expressed in transfected cells; host or cells: HEK cells
# Sequence (P30559 whole entry): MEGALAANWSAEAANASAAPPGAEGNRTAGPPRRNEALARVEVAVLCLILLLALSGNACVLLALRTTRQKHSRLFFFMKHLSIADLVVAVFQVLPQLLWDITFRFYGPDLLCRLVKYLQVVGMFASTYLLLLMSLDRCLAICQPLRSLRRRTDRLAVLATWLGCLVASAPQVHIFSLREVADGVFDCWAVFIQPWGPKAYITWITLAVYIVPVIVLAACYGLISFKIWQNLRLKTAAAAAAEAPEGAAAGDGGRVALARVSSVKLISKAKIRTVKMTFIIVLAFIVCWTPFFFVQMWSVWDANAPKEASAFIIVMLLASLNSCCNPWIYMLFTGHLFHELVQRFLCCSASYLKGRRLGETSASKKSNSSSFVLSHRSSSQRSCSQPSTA
# procedure-summary: Activation of OT-R by bacterial peptides: calcium release from HEK cells transfected with human OT-R
# Format: cell-based
# measurement-parameters: mean ± standard error; maximal amplitude of Ca2+ release, HEK cells expressing human OT-R
Classification field: true (1) = Emax at or over 200; false (0) = Emax under 200.

Ask: Exam item: decide whether the reported Emax for H-KYIENISDE-OH [Peptide 14] is at least 200.
Reply: true (1)

Ask: Exam item: decide whether the reported Emax for H-DFVKNMITG-OH [Peptide 17] is at least 200.
Reply: false (0)

Ask: Exam item: decide whether the reported Emax for H-QYIQEGR-OH [Peptide 6, H-QYIQEGR-OH] is at least 200.
Reply: false (0)

Ask: Exam item: decide whether the reported Emax for H-KFVNDNELG-OH [Peptide 2] is at least 200.
Reply: false (0)

Ask: Exam item: decide whether the reported Emax for H-ATSKNCPIA-OH [Peptide 4] is at least 200.
Reply: true (1)

Ask: Exam item: decide whether the reported Emax for H-DYVKNMITG-OH [Peptide 1] is at least 200.
Reply: true (1)

Ask: Exam item: decide whether the reported Emax for H-LTITNVPNS-OH [Peptide 5] is at least 200.
Reply: true (1)

Ask: Exam item: decide whether the reported Emax for H-KQFVHENELG-OH [Peptide 7] is at least 200.
Reply: true (1)
